Test system: Plasmodium falciparum
Assay comment: Antimalarial activity against multidrug resistant Plasmodium falciparum NHP1337 assessed as growth inhibition after 72 hrs by SYBR Green based fluorescence assay
Format: functional, organism-based
Run parameters: Plasmodium falciparum, NHP1337, 72 h
The entries below come with measured pIC50 values attached.
As a rule, pIC50 stands for the negative log10 of the concentration, concentration in M.

As a guide, the following entries are already answered.
structure_string=C[C@@H]1O[C@@H](Oc2c(-c3ccc(O)cc3)oc3cc(O)cc(O)c3c2=O)[C@H](OC(=O)/C=C/c2ccc(O)cc2)[C@H](OC(=O)/C=C/c2ccc(O)cc2)[C@H]1O test_value=5.15
structure_string=C[C@@H]1O[C@@H](Oc2c(-c3ccc(O)cc3)oc3cc(O)cc(O)c3c2=O)[C@H](OC(=O)/C=C\c2ccc(O)cc2)[C@H](OC(=O)/C=C/c2ccc(O)cc2)[C@H]1O test_value=5.39

State the measured pIC50 (Plasmodium falciparum) of C=C(C)[C@@H]1CC[C@]2(CO)CC[C@]3(C)[C@H](CC[C@@H]4[C@@]5(C)CC[C@H](O)[C@@](C)(CO)[C@@H]5CC[C@]43C)[C@@H]12
5.28

* * *

Assay comment: Selectivity ratio of IC50 for human HeLa cells to IC50 for multidrug resistant Plasmodium falciparum NHP1337
Format: ADME, cell-based
Run parameters: HeLa cells versus Plasmodium falciparum NHP1337, read-out: Ratio IC50
Observed property: selectivity ratio

molecule=CC(=O)O[C@@H]1[C@@H](OC(=O)/C=C\c2ccc(O)cc2)[C@H](Oc2c(-c3ccc(O)cc3)oc3cc(O)cc(O)c3c2=O)O[C@H](COC(=O)/C=C/c2ccc(O)cc2)[C@H]1OC(C)=O test_value="< 0.6"
molecule=CC(=O)O[C@@H]1[C@@H](OC(=O)/C=C\c2ccc(O)cc2)[C@H](Oc2c(-c3ccc(O)cc3)oc3cc(O)cc(O)c3c2=O)O[C@H](COC(=O)/C=C\c2ccc(O)cc2)[C@H]1OC(C)=O test_value="< 0.8"
molecule=C=C(C)[C@@H]1CC[C@]2(CO)CC[C@]3(C)[C@H](CC[C@@H]4[C@@]5(C)CC[C@H](O)[C@@](C)(COC(=O)/C=C\c6ccc(O)cc6)[C@@H]5CC[C@]43C)[C@@H]12 test_value=4.6
molecule=C=C(C)[C@@H]1CC[C@]2(CO)CC[C@]3(C)[C@H](CC[C@@H]4[C@@]5(C)CC[C@H](OC(=O)/C=C/c6ccc(O)c(OC)c6)[C@@](C)(CO)[C@@H]5CC[C@]43C)[C@@H]12 test_value="> 8.7"

Let us move to another entry and its selectivity ratio.
Please report the measured selectivity ratio for C=C(C)[C@@H]1CC[C@]2(CO)CC[C@]3(C)[C@H](CC[C@@H]4[C@@]5(C)CC[C@H](O)[C@@](C)(COC(=O)/C=C/c6ccc(O)c(OC)c6)[C@@H]5CC[C@]43C)[C@@H]12 (stereo in doubt; 3)
> 74

* * *

# maps each entry to its selectivity ratio
Assay comment: Selectivity ratio of IC50 for human HeLa cells to IC50 for multidrug sensitive Plasmodium falciparum HB3
Type: ADME, cell-based
Run parameters: HeLa cells versus Plasmodium falciparum HB3, read-out: Ratio IC50

molecule=O=c1cc(-c2ccc(O)c(-c3c(O)cc(O)c4c(=O)cc(-c5ccc(O)cc5)oc34)c2)oc2cc(O)cc(O)c12 test_value=1.9
molecule=C=C(C)[C@@H]1CC[C@]2(CO)CC[C@]3(C)[C@H](CC[C@@H]4[C@@]5(C)CC[C@H](O)[C@@](C)(COC(=O)/C=C\c6ccc(O)cc6)[C@@H]5CC[C@]43C)[C@@H]12 test_value=8.8
molecule=CC(=O)O[C@@H]1[C@@H](OC(=O)/C=C\c2ccc(O)cc2)[C@H](Oc2c(-c3ccc(O)cc3)oc3cc(O)cc(O)c3c2=O)O[C@H](COC(=O)/C=C/c2ccc(O)cc2)[C@H]1OC(C)=O test_value="< 3.3"
molecule=COc1cc(O)c(-c2c(C)cc(O)c3c2C(=O)c2cccc(O)c2C3=O)c(O)c1C(C)=O test_value=6.6
molecule=C[C@@H]1O[C@@H](Oc2c(-c3ccc(O)cc3)oc3cc(O)cc(O)c3c2=O)[C@H](OC(=O)/C=C\c2ccc(O)cc2)[C@H](OC(=O)/C=C/c2ccc(O)cc2)[C@H]1O test_value=19

# context switch: different molecule, same selectivity ratio
Return selectivity ratio for the following molecule: C=C(C)[C@@H]1CC[C@]2(CO)CC[C@]3(C)[C@H](CC[C@@H]4[C@@]5(C)CC[C@H](OC(=O)/C=C/c6ccc(O)cc6)[C@@](C)(CO)[C@@H]5CC[C@]43C)[C@@H]12 (stereo in doubt)
9.6

* * *

Assay comment: Selectivity ratio of IC50 for human HeLa cells to IC50 for multidrug sensitive Plasmodium falciparum HB3
Format: ADME, cell-based
Run parameters: HeLa cells versus Plasmodium falciparum HB3, read-out: Ratio IC50
Below, each entry is listed alongside its reported selectivity ratio.
Please state the value as a number alone, without comment.

structure_string=C=C(C)[C@@H]1CC[C@]2(CO)CC[C@]3(C)[C@H](CC[C@@H]4[C@@]5(C)CC[C@H](O)[C@@](C)(COC(=O)/C=C/c6ccc(O)cc6)[C@@H]5CC[C@]43C)[C@@H]12 test_value=31

Let's switch to this compound now.
Supply selectivity ratio value. Item: C[C@@H]1O[C@@H](Oc2c(-c3ccc(O)cc3)oc3cc(O)cc(O)c3c2=O)[C@H](OC(=O)/C=C\c2ccc(O)cc2)[C@H](OC(=O)/C=C\c2ccc(O)cc2)[C@H]1O
8.9

* * *

Assay comment: Resistance index, ratio of IC50 for multidrug resistant Plasmodium falciparum NHP1337 to IC50 for multidrug sensitive Plasmodium falciparum HB3
Format: functional
Observed property: Ratio IC50
Answer field: number only, no words.

# count of solved cases: 5
compound=COc1cc(O)c(-c2c(C)cc(O)c3c2C(=O)c2cccc(O)c2C3=O)c(O)c1C(C)=O observed_property="Ratio IC50" test_value=1
compound=CC(=O)O[C@@H]1[C@@H](OC(=O)/C=C\c2ccc(O)cc2)[C@H](Oc2c(-c3ccc(O)cc3)oc3cc(O)cc(O)c3c2=O)O[C@H](COC(=O)/C=C/c2ccc(O)cc2)[C@H]1OC(C)=O observed_property="Ratio IC50" test_value=5.6
compound="C=C(C)[C@@H]1CC[C@]2(CO)CC[C@]3(C)[C@H](CC[C@@H]4[C@@]5(C)CC[C@H](O)[C@@](C)(COC(=O)/C=C/c6ccc(O)c(OC)c6)[C@@H]5CC[C@]43C)[C@@H]12 (stereo in doubt; 3)" observed_property="Ratio IC50" test_value=0.5
compound="C=C(C)[C@@H]1CC[C@]2(CO)CC[C@]3(C)[C@H](CC[C@@H]4[C@@]5(C)CC[C@H](OC(=O)/C=C/c6ccc(O)cc6)[C@@](C)(CO)[C@@H]5CC[C@]43C)[C@@H]12 (stereo in doubt; 6)" observed_property="Ratio IC50" test_value=0.7
compound="C=C(C)[C@@H]1CC[C@]2(CO)CC[C@]3(C)[C@H](CC[C@@H]4[C@@]5(C)CC[C@H](O)[C@@](C)(COC(=O)/C=C/c6ccc(O)c(OC)c6)[C@@H]5CC[C@]43C)[C@@H]12 (stereo in doubt)" observed_property="Ratio IC50" test_value=0.3

# return recorded Ratio IC50 for entry C[C@@H]1O[C@@H](Oc2c(-c3ccc(O)cc3)oc3cc(O)cc(O)c3c2=O)[C@H](OC(=O)/C=C/c2ccc(O)cc2)[C@H](OC(=O)/C=C\c2ccc(O)cc2)[C@H]1O
2

Give reported Ratio IC50 value for O=c1cc(-c2ccc(O)c(-c3c(O)cc(O)c4c(=O)cc(-c5ccc(O)cc5)oc34)c2)oc2cc(O)cc(O)c12
0.8

State, in one line, measured Ratio IC50 of C=C(C)[C@@H]1CC[C@]2(CO)CC[C@]3(C)[C@H](CC[C@@H]4[C@@]5(C)CC[C@H](O)[C@@](C)(COC(=O)/C=C/c6ccc(O)cc6)[C@@H]5CC[C@]43C)[C@@H]12
0.9

Identify the reported Ratio IC50 for the following entry. CC(=O)O[C@@H]1[C@@H](OC(=O)/C=C/c2ccc(O)cc2)[C@H](Oc2c(-c3ccc(O)cc3)oc3cc(O)cc(O)c3c2=O)O[C@H](COC(=O)/C=C\c2ccc(O)cc2)[C@H]1OC(C)=O
5

Quote Ratio IC50 reported for C[C@@H]1O[C@@H](Oc2c(-c3ccc(O)cc3)oc3cc(O)cc(O)c3c2=O)[C@H](OC(=O)/C=C/c2ccc(O)cc2)[C@H](OC(=O)/C=C/c2ccc(O)cc2)[C@H]1O please.
12

* * *

Assay comment: Selectivity ratio of IC50 for human HeLa cells to IC50 for multidrug sensitive Plasmodium falciparum HB3
Assay type: ADME, cell-based
Run parameters: HeLa cells versus Plasmodium falciparum HB3, read-out: Ratio IC50
Observed property: selectivity ratio

See these solved cases before continuing.
structure_string=C[C@@H]1O[C@@H](Oc2c(-c3ccc(O)cc3)oc3cc(O)cc(O)c3c2=O)[C@H](OC(=O)/C=C/c2ccc(O)cc2)[C@H](OC(=O)/C=C/c2ccc(O)cc2)[C@H]1O test_value=34
structure_string=CC(=O)O[C@@H]1[C@@H](OC(=O)/C=C/c2ccc(O)cc2)[C@H](Oc2c(-c3ccc(O)cc3)oc3cc(O)cc(O)c3c2=O)O[C@H](COC(=O)/C=C\c2ccc(O)cc2)[C@H]1OC(C)=O test_value="< 3.8"
structure_string=C=C(C)[C@@H]1CC[C@]2(CO)CC[C@]3(C)[C@H](CC[C@@H]4[C@@]5(C)CC[C@H](OC(=O)/C=C/c6ccc(O)c(OC)c6)[C@@](C)(CO)[C@@H]5CC[C@]43C)[C@@H]12 test_value="> 6.7"
structure_string=C[C@@H]1O[C@@H](Oc2c(-c3ccc(O)cc3)oc3cc(O)cc(O)c3c2=O)[C@H](OC(=O)/C=C/c2ccc(O)cc2)[C@H](OC(=O)/C=C\c2ccc(O)cc2)[C@H]1O test_value=6

// moving on: another record for selectivity ratio
Please supply the value of reported selectivity ratio for the item CC(=O)O[C@@H]1[C@@H](OC(=O)/C=C\c2ccc(O)cc2)[C@H](Oc2c(-c3ccc(O)cc3)oc3cc(O)cc(O)c3c2=O)O[C@H](COC(=O)/C=C\c2ccc(O)cc2)[C@H]1OC(C)=O
< 1.4

meta.source: ChEMBL document CHEMBL3813696
